We begin with a simple list: items and their reported pKd.
# TESTED_ON: T1, soluble heterodimeric hCD3ε/δ.mFc protein (human)
# T1 construct: also called soluble human CD3; soluble heterodimeric CD3 protein
# T1 chain 1: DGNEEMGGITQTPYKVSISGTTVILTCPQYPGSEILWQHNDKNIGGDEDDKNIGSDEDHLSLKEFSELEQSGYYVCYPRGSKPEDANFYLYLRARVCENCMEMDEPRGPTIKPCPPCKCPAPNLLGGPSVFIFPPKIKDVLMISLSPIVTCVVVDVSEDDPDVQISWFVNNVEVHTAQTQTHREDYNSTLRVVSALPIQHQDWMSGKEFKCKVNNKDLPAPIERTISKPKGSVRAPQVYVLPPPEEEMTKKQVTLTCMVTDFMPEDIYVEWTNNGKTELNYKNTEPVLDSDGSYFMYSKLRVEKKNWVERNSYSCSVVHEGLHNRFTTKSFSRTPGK
# T1 chain 2: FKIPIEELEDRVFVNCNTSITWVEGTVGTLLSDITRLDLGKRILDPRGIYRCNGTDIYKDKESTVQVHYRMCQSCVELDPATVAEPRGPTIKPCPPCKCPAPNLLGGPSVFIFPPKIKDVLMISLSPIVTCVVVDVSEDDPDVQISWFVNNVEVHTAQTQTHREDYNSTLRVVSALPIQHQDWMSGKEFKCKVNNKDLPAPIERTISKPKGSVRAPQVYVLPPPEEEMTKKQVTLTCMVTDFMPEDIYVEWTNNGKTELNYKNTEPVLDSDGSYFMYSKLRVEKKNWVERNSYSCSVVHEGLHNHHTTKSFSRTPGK
# PROCEDURE_SUMMARY: SPR MASS-1, 37 C, antigen-capture (hCD3ε/δ.mFc captured), antibody injected
Give only the number. pKd is defined as minus log10 of concentration in molar units.

- BINDER: "BSPSMA/CD3-1200 (bispecific antibody, IgG4, V domains shown, modified (chimeric) IgG4 Fc domain; also called PSMA-VH-11810 x CD3-VH-G12) VH 1: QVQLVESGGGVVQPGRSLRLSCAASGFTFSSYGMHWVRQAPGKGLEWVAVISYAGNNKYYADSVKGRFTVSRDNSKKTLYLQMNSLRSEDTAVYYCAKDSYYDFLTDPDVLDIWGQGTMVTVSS VH 2: EVQLVESGGGLVQPGRSLRLSCAASGFTFDDYSMHWVRQAPGKGLEWVSGISWNSGSIGYADSVKGRFTISRDNAKNSLYLQMNSLRAEDTALYYCAKDGSGYGKFYHYGLDVWGQGTTVTVSS VL: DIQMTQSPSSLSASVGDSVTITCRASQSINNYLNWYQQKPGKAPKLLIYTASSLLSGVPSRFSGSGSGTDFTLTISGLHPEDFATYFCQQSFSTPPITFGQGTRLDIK"
  TEST_RESULT: 7.19
- BINDER: "BSPSMA/CD3-2100 (bispecific antibody, IgG4, V domains shown, modified (chimeric) IgG4 Fc domain; also called PSMA-VH-11810 x CD3-VH-G21) VH 1: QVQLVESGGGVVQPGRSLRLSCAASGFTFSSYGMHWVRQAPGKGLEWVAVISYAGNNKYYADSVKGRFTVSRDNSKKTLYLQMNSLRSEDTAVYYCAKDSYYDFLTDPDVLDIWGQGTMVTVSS VH 2: EVQLVESGGGLVQPGRSLRLSCAASGFTFDDYSMHWVRQAPGKGLEWVSGISWNSGSKGYADSVKGRFTISRDNAKNSLYLQMNSLRAEDTALYYCAKDGSGYGKFYYYGMDVWGQGTTVTVSS VL: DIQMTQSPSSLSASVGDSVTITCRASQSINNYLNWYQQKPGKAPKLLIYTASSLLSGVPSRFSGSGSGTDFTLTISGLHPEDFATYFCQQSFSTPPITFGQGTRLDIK"
  TEST_RESULT: 7.11
- BINDER: "BSPSMA/CD3-1100 (bispecific antibody, IgG4, V domains shown, modified (chimeric) IgG4 Fc domain; also called PSMA-VH-11810 x CD3-VH-G11) VH 1: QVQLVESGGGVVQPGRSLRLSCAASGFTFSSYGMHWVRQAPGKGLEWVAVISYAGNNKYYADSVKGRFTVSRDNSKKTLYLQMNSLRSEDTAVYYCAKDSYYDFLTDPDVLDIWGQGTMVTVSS VH 2: EVQLVESGGGLVQPGRSLRLSCAASGFTFDDYSMHWVRQAPGKGLEWVSGISWNSGSKGYADSVKGRFTISRDNAKNSLYLQMNSLRAEDTALYYCAKYGSGYGKFYHYGMDVWGQGTTVTVSS VL: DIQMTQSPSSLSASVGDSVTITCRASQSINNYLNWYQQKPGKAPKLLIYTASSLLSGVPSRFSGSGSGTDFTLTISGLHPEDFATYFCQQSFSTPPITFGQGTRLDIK"
  TEST_RESULT: 7.95

Attention now shifts to the item below.
So, BSPSMA/CD3-1600 (bispecific antibody, IgG4, V domains shown, modified (chimeric) IgG4 Fc domain; also called PSMA-VH-11810 x CD3-VH-G16) VH 1: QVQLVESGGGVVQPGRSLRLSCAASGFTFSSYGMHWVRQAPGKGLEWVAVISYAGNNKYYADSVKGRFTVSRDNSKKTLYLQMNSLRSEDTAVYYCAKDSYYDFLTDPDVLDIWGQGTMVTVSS VH 2: EVQLVESGGGLVQPGRSLRLSCAASGFTFDDYSMHWVRQAPGKGLEWVSGISWNSGSKGYADSVKGRFTISRDNAKNSLYLQMNSLRAEDTALYYCAKDGSGYGKFYHYGMDVWGQGTTVTVSS VL: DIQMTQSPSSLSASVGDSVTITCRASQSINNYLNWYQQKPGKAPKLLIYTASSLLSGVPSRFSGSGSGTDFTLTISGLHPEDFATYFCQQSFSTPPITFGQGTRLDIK ? Its pKd was 7.42
